- System: 786-0
- Experiment Summary: NCI tumour cell line growth inhibition, 48 h
Activity calls are given as the source filed them. Cut-off read from the data, not from the text of the source: active = GI50 up to about 1.1 µM and inactive = higher.
Form entry, call: pick from YES for active, NO for inactive

COc1ccnc2c1C(=O)c1nc3ccccc3c3ccnc-2c13 = YES
CC1(O)CCC2(C#N)CCC1C2O (centres undefined) = NO
N#C/C(=C\c1ccc(C(O)P(=O)(O)O)cc1)C(N)=O (centres undefined) = NO

-- ask Which outcome did this test record for the compound COc1ccccc1N1C(=O)/C(=C\c2cccc(Oc3ccccc3)c2)S(=O)(=O)C1c1ccccc1 (centres undefined) ?
-- reply NO

----------
- Test system: RPMI-8226
- Experiment Summary: NCI tumour cell line growth inhibition, 48 h
Calls of active or inactive are those of the source. No stated cut-off is given here; in the data, active = GI50 up to about 1.1 µM and inactive = higher.
Measured GI50, listed per entry for reference.

Known results for molecules:
COc1ccc2c(c1OC)C(C(Cl)(Cl)Cl)N1CCc3cc4c(cc3C1=C2)OCO4 (stereo not given) = 2.08 µM (inactive)
Cc1ccc(S(=O)(=O)C2=Cc3ccc(C(F)(F)F)cc3C2(O)c2cccc(C(F)(F)F)c2)cc1 (stereo not given) = 2.65 µM (inactive)
COc1ccc(-c2cc(=O)c3c(O)cc(O)cc3o2)c(OC)c1OC = 17.6 µM (inactive)
NC(CSc1nc2ccccn2c1[N+](=O)[O-])C(=O)O (stereo not given) = > 100 µM (inactive)

-- ask For the molecule COc1c(NC(C)=O)cc(C)cc1NC(C)=O , what GI50 is on record?
-- reply > 100 µM (inactive)
